Biological target: T1, human GLP-2R (glucagon-like peptide-2 receptor) (human, UniProt O95838 1-553)
T1 sequence (looked up): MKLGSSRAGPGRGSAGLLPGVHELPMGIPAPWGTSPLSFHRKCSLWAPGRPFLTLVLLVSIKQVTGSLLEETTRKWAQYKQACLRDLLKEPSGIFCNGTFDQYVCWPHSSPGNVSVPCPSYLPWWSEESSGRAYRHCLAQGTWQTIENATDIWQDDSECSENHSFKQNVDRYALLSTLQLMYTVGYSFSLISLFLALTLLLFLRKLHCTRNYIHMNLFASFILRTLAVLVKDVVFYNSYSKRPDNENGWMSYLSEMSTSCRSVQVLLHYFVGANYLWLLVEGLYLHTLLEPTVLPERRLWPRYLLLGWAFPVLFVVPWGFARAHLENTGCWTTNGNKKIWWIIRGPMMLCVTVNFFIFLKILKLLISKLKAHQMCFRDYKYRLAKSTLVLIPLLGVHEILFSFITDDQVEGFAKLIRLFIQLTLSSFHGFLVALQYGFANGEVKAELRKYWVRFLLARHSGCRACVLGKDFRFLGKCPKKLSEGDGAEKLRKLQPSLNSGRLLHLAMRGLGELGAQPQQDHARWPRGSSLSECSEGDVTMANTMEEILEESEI
Assay: cell-based or functional assay
Where no end group is shown, it is not given here. [ ]: non-standard residue; d: D form. The star is where a group is joined. Palmitoyl = CCCCCCCCCCCCCCCC(=O)*; Aib = CC(C)(N)C(=O)O
property: cAMP assay: EC50 (nM) GLP-2R

Field: example entries. Status: answers known.
1) Palmitoyl-HADGTFISDYSTILDNLAARDFIEWLIQTKITKNDWKHNITQ [Compound no. 50] | 10
2) Palmitoyl-HADGTFISDYSTILDELAARDFINWLIQTKITKNDWKHNITQ [Compound no. 48] | 25.1

(A) Palmitoyl-HADGTFISDYSTILDNLAARDFINWLIQTKITKAEWKHAITQ [Compound no. 49]
(B) Palmitoyl-HADGTFISDYSTILDNLAARDFINWLIETKITKNDWKHNITQ [Compound no. 51]
(C) Palmitoyl-HADGTFISDYSTILDNLAARDFINWLIATKITKNDWKHNITQ [Compound no. 52]
(D) Palmitoyl-HADGTFISDYST[Aib]LDNLAARDFINWLIQTKITKNDWKHNITQ [Compound no. 53]
Could you please order the items by cAMP assay: EC50 (nM) GLP-2R, going from the lowest number to the highest? Sort the labels as requested; that list is your answer.
D, C, B, A
(D: 4 nM, C: 7.9 nM, B: 12.6 nM, A: 35.5 nM)

The values you see were collected from patent US20250304643A1.
